# Tested On: RORc ligand binding domain (Homo sapiens)
# Construct: host or cells: E. coli
# Sequence (P51449 269-508 limits assumed, species assumed): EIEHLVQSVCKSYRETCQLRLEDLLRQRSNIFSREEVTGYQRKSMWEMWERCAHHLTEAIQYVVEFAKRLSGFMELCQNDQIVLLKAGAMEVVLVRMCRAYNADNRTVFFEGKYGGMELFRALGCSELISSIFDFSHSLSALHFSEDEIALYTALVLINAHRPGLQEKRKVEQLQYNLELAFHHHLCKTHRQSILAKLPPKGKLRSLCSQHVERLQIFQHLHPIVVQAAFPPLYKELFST
# Procedure Text: In Vitro RORc Ligand Binding Assay (25-[3H]hydroxycholesterol radioligand filtration)
# Study Conditions: In Vitro RORc Ligand Binding Assay; Table 4; read-out: RORc IC50
pIC50: −log10 of the molar value.
Note to self: values exactly at 7 are TRUE. So pIC50 at or above 7 is TRUE, below is FALSE.

[Q] Identify whether the reported pIC50 of the following compound is 7 or greater: C[C@H]1CCC(c2ccccc2)S(=O)(=O)N1Cc1ccc(N2CCN(C(=O)CC#N)CC2)cc1F (single isomer, unassigned) [Example 71]
[A] TRUE

[Q] Decide: pIC50 of CC(=O)N1CCN(c2ccc(CN3[C@@H](C)CCC(c4ccccc4)S3(=O)=O)c(F)c2)C[C@H]1C#N (stereo partly drawn) >= 7?
[A] FALSE

[Q] Hi team, for C[C@H]1CCC(c2ccccc2)S(=O)(=O)N1Cc1ccc(C(=O)N2CCn3nccc3C2)cc1 (stereo partly drawn) , is the recorded pIC50 at or above 7?
[A] FALSE

[Q] Exam item: decide whether the reported pIC50 for N#CCC(=O)N1CCN(c2ccc(CN3CCCCC(c4ccccc4)S3(=O)=O)c(F)c2)CC1 (single isomer, unassigned) [Example 302] is at least 7.
[A] TRUE

[Q] Kindly determine if pIC50 recorded for C[C@H]1CCC(c2ccccc2)S(=O)(=O)N1Cc1ccc(N2CC(C3CCOCC3)C2)cc1F (single isomer, unassigned) [Example 106] is above or exactly 7.
[A] TRUE
